# System: conscious spontaneous hypertensive rats (SHR)
# ASSAY NOTES: Short-term studies in conscious spontaneous hypertensive rats (oral, systolic arterial pressure)
# Type: in vivo, rat (SHR)
# COND: 3 mg/kg, 24 h
Hi! Could you tag entries with Systolic arterial pressure after treatment, Δ mm Hg, 24 h below -20 mm Hg as fulfilled, and those at or above as not fulfilled? Much appreciated.

(Q) # strict comparison: is reported Systolic arterial pressure after treatment, Δ mm Hg, 24 h < -20 mm Hg? input = CCOC(=O)C1=C(COCCOCCN)NC(C)=C(C(=O)OC)C1c1ccccc1Cl (racemic) [EXAMPLE 5]
(A) fulfilled

(Q) Find out if reported Systolic arterial pressure after treatment, Δ mm Hg, 24 h for CCOC(=O)C1=C(COCCOCCN(C)Cc2ccccc2)NC(C)=C(C(=O)OC)C1c1ccccc1Cl (racemic) [EXAMPLE 7] is less than -20 mm Hg
(A) not fulfilled

(Q) hey, is Systolic arterial pressure after treatment, Δ mm Hg, 24 h for CCOC(=O)C1=C(COCCOCCN)NC(C)=C(C(=O)OC)C1c1c(F)c(F)c(F)c(F)c1F (racemic) [EXAMPLE 1] lower than -20 mm Hg or not?
(A) fulfilled

(Q) I wonder whether CCOC(=O)C1=C(COCCN)NC(C)=C(C(=O)OC)C1c1ccccc1Cl (stereo not drawn) [AMLODIPINE, amlodipine, reference compound] has Systolic arterial pressure after treatment, Δ mm Hg, 24 h below -20 mm Hg. Can you tell?
(A) not fulfilled

(Q) Please state whether Systolic arterial pressure after treatment, Δ mm Hg, 24 h is below -20 mm Hg for CCOC(=O)C1=C(CCCCCCCN)NC(C)=C(C(=O)OC)C1c1ccccc1Cl (racemic) [EXAMPLE 12]
(A) fulfilled

(Q) Hello, I'm reviewing records and need to know if Systolic arterial pressure after treatment, Δ mm Hg, 24 h of CCOC(=O)C1=C(COCCOCCN)NC(C)=C(C(=O)OC)C1c1cccc(Cl)c1Cl (racemic) [EXAMPLE 6] is below -20 mm Hg. Could you check?
(A) fulfilled

* * *

Task for the reader: assign each of the following molecules its reported Ki.
# TESTED TARGET: dihydropyridine site associated with the calcium slow channel (Rattus norvegicus, UniProt Q02485)
# Construct: microsomal membrane preparations prepared from skeletal muscle of rat (Wistar) hind limbs
# Sequence (Q02485 whole entry): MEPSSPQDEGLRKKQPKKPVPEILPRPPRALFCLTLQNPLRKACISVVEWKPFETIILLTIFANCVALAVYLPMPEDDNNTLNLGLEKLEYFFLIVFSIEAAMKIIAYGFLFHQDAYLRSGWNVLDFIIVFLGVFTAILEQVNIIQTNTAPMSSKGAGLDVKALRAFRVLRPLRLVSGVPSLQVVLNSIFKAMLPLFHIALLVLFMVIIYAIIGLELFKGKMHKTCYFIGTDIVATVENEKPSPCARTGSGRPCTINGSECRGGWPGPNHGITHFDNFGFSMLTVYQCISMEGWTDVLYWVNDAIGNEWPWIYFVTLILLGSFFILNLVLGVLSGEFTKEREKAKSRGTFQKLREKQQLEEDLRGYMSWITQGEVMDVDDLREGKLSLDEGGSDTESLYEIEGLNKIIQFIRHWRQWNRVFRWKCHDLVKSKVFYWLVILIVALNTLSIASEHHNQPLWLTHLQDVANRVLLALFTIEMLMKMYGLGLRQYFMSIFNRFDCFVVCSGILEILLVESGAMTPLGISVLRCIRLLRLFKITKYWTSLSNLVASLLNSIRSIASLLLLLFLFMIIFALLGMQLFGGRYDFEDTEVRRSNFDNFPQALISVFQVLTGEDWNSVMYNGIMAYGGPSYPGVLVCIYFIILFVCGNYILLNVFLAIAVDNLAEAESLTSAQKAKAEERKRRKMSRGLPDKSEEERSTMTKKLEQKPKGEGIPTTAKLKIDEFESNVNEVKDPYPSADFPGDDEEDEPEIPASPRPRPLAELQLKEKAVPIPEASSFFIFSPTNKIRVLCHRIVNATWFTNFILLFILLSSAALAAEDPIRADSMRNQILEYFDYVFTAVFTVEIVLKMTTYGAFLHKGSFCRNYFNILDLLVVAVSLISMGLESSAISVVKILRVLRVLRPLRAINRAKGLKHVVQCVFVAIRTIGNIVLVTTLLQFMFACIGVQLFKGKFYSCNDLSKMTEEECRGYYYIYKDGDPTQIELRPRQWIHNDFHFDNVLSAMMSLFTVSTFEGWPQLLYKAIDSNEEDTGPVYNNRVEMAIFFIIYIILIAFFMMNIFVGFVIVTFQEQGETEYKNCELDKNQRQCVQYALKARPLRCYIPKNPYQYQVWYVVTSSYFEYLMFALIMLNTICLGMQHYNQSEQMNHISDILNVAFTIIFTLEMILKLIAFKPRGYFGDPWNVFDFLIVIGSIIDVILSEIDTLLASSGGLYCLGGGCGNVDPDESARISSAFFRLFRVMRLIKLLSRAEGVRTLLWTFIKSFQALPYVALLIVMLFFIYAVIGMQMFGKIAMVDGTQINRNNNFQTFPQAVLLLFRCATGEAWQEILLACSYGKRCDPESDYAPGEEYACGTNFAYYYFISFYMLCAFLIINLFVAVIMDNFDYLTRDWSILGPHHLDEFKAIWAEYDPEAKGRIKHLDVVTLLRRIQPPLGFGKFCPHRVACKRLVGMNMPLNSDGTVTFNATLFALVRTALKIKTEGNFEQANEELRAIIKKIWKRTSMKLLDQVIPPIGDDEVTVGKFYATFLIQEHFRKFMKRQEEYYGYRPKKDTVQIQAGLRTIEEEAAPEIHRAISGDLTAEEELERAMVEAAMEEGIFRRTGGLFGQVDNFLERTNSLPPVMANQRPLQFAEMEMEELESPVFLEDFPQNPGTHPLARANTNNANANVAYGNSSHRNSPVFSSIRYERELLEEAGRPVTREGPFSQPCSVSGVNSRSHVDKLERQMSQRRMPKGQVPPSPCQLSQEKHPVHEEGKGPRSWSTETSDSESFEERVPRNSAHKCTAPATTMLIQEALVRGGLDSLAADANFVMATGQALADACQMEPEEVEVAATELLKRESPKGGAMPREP
# Sequence (P54290 25-945 partner limits assumed): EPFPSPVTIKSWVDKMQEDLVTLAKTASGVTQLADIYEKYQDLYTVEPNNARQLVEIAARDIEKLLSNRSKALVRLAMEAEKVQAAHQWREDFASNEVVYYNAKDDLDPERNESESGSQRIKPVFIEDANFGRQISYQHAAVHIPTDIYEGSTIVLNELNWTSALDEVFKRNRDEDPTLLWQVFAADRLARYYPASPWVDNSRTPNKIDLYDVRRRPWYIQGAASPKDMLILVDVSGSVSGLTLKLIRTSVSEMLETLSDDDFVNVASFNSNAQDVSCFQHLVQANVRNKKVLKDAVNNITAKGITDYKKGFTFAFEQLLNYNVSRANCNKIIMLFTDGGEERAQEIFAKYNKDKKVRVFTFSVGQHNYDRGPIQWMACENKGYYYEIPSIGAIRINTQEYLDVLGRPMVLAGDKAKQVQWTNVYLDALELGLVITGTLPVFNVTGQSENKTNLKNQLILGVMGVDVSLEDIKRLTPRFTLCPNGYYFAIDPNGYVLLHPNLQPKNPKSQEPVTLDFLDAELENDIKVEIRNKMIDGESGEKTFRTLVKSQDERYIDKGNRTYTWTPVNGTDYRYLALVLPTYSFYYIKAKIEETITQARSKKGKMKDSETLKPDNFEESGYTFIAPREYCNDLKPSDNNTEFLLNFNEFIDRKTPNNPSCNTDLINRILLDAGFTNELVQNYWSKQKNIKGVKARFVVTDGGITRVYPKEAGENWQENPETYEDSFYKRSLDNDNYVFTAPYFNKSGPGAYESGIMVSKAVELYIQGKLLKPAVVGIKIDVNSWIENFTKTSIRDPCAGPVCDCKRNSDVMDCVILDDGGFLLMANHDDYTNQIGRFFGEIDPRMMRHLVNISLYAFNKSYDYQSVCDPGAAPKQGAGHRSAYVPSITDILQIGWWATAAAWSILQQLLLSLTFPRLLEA
# Sequence (P54290 946-1091 partner limits assumed): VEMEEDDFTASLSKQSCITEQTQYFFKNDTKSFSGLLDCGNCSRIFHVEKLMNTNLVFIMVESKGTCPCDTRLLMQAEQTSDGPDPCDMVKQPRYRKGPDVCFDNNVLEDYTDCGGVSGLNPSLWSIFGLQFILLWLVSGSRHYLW
# Sequence (P54283 whole entry partner): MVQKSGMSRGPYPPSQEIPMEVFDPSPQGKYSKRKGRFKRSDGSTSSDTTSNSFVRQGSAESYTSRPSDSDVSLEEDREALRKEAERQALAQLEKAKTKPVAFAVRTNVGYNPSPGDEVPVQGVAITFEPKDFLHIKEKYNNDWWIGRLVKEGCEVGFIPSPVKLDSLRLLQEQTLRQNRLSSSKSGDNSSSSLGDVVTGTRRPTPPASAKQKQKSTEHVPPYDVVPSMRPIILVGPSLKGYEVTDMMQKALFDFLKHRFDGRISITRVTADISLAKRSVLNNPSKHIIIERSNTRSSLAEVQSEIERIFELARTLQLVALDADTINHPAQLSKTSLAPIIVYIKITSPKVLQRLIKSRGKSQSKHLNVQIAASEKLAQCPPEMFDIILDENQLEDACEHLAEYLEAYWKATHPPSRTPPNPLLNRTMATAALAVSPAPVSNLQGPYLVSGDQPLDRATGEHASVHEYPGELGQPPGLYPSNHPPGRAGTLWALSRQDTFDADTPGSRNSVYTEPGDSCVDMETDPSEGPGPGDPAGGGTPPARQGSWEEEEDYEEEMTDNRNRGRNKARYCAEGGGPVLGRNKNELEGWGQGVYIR
# Sequence (P97707 whole entry partner): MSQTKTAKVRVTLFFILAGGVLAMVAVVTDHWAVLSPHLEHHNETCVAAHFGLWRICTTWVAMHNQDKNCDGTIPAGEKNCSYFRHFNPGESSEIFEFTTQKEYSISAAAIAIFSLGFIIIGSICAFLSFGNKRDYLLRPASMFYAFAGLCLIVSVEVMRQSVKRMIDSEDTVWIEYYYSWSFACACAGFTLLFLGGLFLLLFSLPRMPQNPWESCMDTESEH
# ASSAY NOTES: Affinity for the dihydropyridine binding site, displacement of [3H]-PN 200-110
# COND: displacement of [3H]-PN 200-110, microsomal membranes of rat skeletal muscle
State just the number; it will be interpreted in nM.

(Q) Specify measured Ki for CCOC(=O)C1=C(COCCOCCN)NC(C)=C(C(=O)OC)C1c1cccc(Cl)c1Cl (racemic) [EXAMPLE 6] .
(A) 8.2

(Q) Determine from records and report Ki for CCOC(=O)C1=C(COCCOCCN)NC(C)=C(C(=O)OC)C1c1cccc(Cl)c1Cl (single isomer, unassigned; (-)) [EXAMPLE 50]
(A) 0.28
